# System: L363 cells
# test_protocol: L363 cell viability (MTS)
# Format: cell-based, human
# experimental_parameters: Homo sapiens, L-363, viability of L363 cells; read-out: IC50
Give measured IC50 for each item. Keep answers brief.
Give a bare numeral; the unit µM is implied.

Form field IC50, entry Cc1oc2ccc(O)c(CNC3CC4CCC3CC4)c2c1C(=O)Nc1ccc(C(F)(F)F)cc1 (stereo not drawn) [Compound 34] : 9.83

Value of IC50 reported for the compound Cc1oc2ccc(O)c(CN3CCC[C@@H]3C)c2c1C(=O)Nc1ccc(C(F)(F)F)cc1 [Compound 29] is 4.45

# compound Cc1oc2ccc(O)c(CN3CCCC[C@@H]3C)c2c1C(=O)Nc1ccc(C(F)(F)F)cc1 [Compound 27] ; its IC50 = 25.8

Input Cc1oc2ccc(O)c(CN3CCCC3)c2c1C(=O)Nc1cccc(C(F)(F)F)c1 [Compound 24] . Output IC50: 7.8

Item: Cc1oc2ccc(O)c(CN3CCCCC3)c2c1C(=O)Nc1cccc(C(F)(F)F)c1 [Compound 18] | IC50: 5.2

compound Cc1oc2ccc(O)c(CN3CCC[C@H]3C)c2c1C(=O)Nc1ccc(C(F)(F)F)cc1 [Compound 28] , IC50 observed: 6.84

Sample CCOC(=O)c1c(-c2ccccc2)oc2ccc(O)c(CN3CCCCCC3)c12 [Compound 10] ; IC50 observed: 7.1

The reported value for Cc1oc2ccc(O)c(CN3CCCCC3C)c2c1C(=O)Nc1cccc(C(F)(F)F)c1 (stereo not drawn) [Compound 19] in terms of IC50 is 3.8

// field: IC50; key: Cc1oc2ccc(O)c(CN3CCC(C)CC3)c2c1C(=O)Nc1ccc(C(F)(F)F)cc1 [Compound 26] ; value = 11.4

Per the records, this compound ( Cc1oc2ccc(O)c(CN3CCCCCC3)c2c1C(=O)Nc1ccc(C(F)(F)F)cc1 [Compound 23] ) has IC50 equal to 3.6

All values here come from patent US11014902B2.
